- assay details: physchem
- conditions: pH 7.4 buffer
# reported solubility thermodynamic; entries follow
Number plus unit, in that order.

compound | solubility thermodynamic
CN(C)CCCN(C)c1nc2cc(Cl)c(Cl)cc2nc1/C=C/c1ccccc1 | 5.8 µM

Data request: Answer with reported solubility thermodynamic of CN(C(=O)Cc1ccc(-n2cnnn2)cc1)C1CCN(Cc2ccc(C(F)(F)F)cc2)CC1
Data returned: 17.8 µM

Data request: Return reported solubility thermodynamic. Input compound: CCc1nc2c(N)nc3ccccc3c2n1CCCCNS(C)(=O)=O
Data returned: 537 µM

Data request: Give the measured solubility thermodynamic for CS(=O)(=O)N1CC2(CCN(C(=O)Nc3cnc(-c4ccccc4)cn3)CC2)c2ccccc21
Data returned: 0.2 µM

Data request: State its solubility thermodynamic: O=C(NO)c1ccc(NS(=O)(=O)c2ccccc2)cc1
Data returned: 316 µM

Data request: # return recorded solubility thermodynamic for entry COc1ccc(Cl)c(Nc2ncnc3cc(OCC4CCN(C)CC4)c(OC)cc23)c1
Data returned: 324 µM

Data request: Output measured solubility thermodynamic for this item: CCCSc1ncccc1C(=O)NC1CCCCC1
Data returned: 81.3 µM

Data request: Supply reported solubility thermodynamic belonging to this compound: CC(C)Oc1cccc(NC(=O)c2ccc3cc(C(=N)N)ccc3c2)c1
Data returned: 64.6 µM

Data request: Answer with the recorded solubility thermodynamic for the compound listed here: CCC(=O)N[C@H]1CC[C@@H](C(=O)N(C)c2ccc(-c3nc4ccccc4o3)cc2)C1
Data returned: 45.7 µM
